# Assayed Target: human EP4 receptor (Homo sapiens, UniProt P35408)
# Sequence (P35408 whole entry): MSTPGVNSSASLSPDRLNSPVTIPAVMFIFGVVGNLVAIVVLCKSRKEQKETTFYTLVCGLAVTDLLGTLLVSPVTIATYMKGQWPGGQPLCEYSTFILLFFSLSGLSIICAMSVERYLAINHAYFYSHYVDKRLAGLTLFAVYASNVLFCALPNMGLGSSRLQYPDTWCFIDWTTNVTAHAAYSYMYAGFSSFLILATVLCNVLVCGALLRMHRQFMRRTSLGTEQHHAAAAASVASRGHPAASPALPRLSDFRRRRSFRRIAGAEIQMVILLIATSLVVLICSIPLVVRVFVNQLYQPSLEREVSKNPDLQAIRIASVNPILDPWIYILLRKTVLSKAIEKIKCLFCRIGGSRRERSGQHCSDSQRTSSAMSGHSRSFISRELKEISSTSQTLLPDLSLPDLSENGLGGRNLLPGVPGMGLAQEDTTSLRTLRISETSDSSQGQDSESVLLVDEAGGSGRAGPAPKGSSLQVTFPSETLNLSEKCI
# Protocol Details: Assay for EP4 antagonistic effect (cAMP, PGE2-stimulated CHO stable cell line)
Quantity Measured: IC50 (nM)

Here's what some known entries look like.
[
  {
    "Mol Smiles": "CCc1cc(Oc2c(C(=O)N[C@@H](C)c3ccc(C(=O)O)cc3)c(C(F)F)nn2C)ccc1F",
    "Quantity Measured": "IC50",
    "Value Unit": "nM",
    "Reported Value": 1.9
  },
  {
    "Mol Smiles": "C[C@H](NC(=O)c1c(C(F)F)nn(C)c1Oc1cccc(C2CC2)c1)c1ccc(C(=O)O)cc1",
    "Quantity Measured": "IC50",
    "Value Unit": "nM",
    "Reported Value": 2.8
  },
  {
    "Mol Smiles": "C[C@H](NC(=O)c1c(C(F)F)nn(C)c1Oc1cccc(SC(F)(F)F)c1)c1ccc(C(=O)O)cc1",
    "Quantity Measured": "IC50",
    "Value Unit": "nM",
    "Reported Value": 14
  },
  {
    "Mol Smiles": "CSc1cccc(Oc2c(C(=O)N[C@@H](C)c3ccc(C(=O)O)cc3)c(C(F)F)nn2C)c1",
    "Quantity Measured": "IC50",
    "Value Unit": "nM",
    "Reported Value": 12
  },
  {
    "Mol Smiles": "C[C@H](NC(=O)c1c(C(F)F)nn(C)c1Oc1cccc(CC(F)(F)F)c1)c1ccc(C(=O)O)cc1",
    "Quantity Measured": "IC50",
    "Value Unit": "nM",
    "Reported Value": 8.2
  }
]

P. CCc1cccc(Oc2c(C(=O)N[C@@H](C)c3ccc(C(=O)O)cc3)c(C(F)F)nn2C)c1
Q. C[C@H](NC(=O)c1c(C(F)F)nn(C)c1Oc1cccc(S(F)(F)(F)(F)F)c1)c1ccc(C(=O)O)cc1
R. C[C@H](NC(=O)c1c(C(F)F)nn(C)c1Oc1cccc(C(C)(F)F)c1)c1ccc(C(=O)O)cc1
S. CCc1cccc(Oc2c(C(=O)N[C@@H](C)c3ccc(C(=O)O)cc3)c(C)nn2C)c1
Thanks in advance: please rank these 4 entries by IC50, highest to lowest. State the ranking by listing the labels in the requested order.
S, Q, P, R
